Target: hMAO-A (Homo sapiens)
Sequence (P21397 1-527): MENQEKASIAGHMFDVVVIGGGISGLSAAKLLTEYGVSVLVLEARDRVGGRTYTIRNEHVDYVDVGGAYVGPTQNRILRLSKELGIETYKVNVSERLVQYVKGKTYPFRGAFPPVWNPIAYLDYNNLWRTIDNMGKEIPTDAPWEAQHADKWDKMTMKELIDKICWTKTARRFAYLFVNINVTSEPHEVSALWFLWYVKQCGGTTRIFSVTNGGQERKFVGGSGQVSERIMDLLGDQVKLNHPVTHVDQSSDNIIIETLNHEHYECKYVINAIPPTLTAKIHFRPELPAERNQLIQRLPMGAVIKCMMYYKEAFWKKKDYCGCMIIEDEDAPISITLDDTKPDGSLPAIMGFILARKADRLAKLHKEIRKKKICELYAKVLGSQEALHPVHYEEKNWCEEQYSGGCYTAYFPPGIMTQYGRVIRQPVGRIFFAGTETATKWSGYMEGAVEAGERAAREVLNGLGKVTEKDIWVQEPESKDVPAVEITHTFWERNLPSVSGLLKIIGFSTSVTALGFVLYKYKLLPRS
Assay: In vitro hMAO-A inhibition and enzyme kinetics, chemiluminescent MAO-Glo assay
Settings: recombinant hMAO-A; mean ± SD of triplicate experiments
endpoint: IC50 (µM)
A number alone suffices; assume µM.

* COc1ccc(-c2coc3cc(O)ccc3c2=O)cc1O [Compound 3, calycosin] | 114

Next, consider the following molecule.
Task item: Need IC50 of O=c1c(-c2ccc(O)c(O)c2)coc2cc(O)ccc12 [Compound 2, 3′,4′,7-trihydroxyisoflavone] , thanks.
Reply: 177
